Target: T1, Bovine carbonic anhydrase II (bovine, UniProt P00921 2-260)
T1 construct: Commercial protein; also called BCA
T1 sequence (P00921 2-260 limits assumed): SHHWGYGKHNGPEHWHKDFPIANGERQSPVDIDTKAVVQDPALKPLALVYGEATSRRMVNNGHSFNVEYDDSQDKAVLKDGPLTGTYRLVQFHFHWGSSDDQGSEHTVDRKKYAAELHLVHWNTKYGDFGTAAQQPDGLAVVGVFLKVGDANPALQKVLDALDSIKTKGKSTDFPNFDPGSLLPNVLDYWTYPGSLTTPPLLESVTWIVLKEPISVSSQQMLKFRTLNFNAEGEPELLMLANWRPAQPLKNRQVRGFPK
Assay: isothermal titration calorimetry, 30 C, single binding site model; selected peptide SA-WIVP (SEQ ID NO:26)
pKd: −log10 of the molar value. SA = 4-(aminooxymethyl)benzenesulfonamide joined by oxime ligation to the periodate-oxidised N-terminal serine
Endpoint Label: pKd

INSERT INTO assay_data (binder, endpoint_label, reported_result) VALUES
  ('{SA}-WIVP-NH2 (also: N-terminal SA cap oxime-linked, made from oxidised N-terminal Ser, Synthetic conjugate made from the peptide S-WIVP; The N-terminal Ser is turned into the oxime-linked sulfonamide; also called sulfonamide-peptide; SA-XXXX) [SA-WIVP (sulfonamide-modified peptide)]', 'pKd', 8.30);
